# TARGET UNDER TEST: Cytochrome P450 2D6 (Homo sapiens)
# MEASUREMENT DESCRIPTION: Cytochrome P450 Family 2 Subfamily D Member 6 (CYP2D6) small molecule antagonists: luciferase reporter qHTS assay (AID 1671196); further: nearly all actives have a fitted effect of over 50% in size
# RUN CONDITIONS: P450-Glo CYP2D6 enzyme assay, luciferin luminescence, 1 h; series mostly up to 115 µM
Results filed as inconclusive are left out. Calls of active or inactive are those of the source. The call rests on the fitted dose curve; in most records, active means well fitted inhibition curve with a large enough effect in the repeat runs; inconclusive means weak or mixed curves; inactive means no such curve, though single readings can be large or run the other way.
Respond with a class label; see active, inactive

molecule=N#Cc1ccccn1 cat=inactive
molecule="CNC(=O)O/N=C/C(C)(C)S(C)=O (stereo unspecified)" cat=inactive
molecule="CC12CC1(C)C(=O)N(c1cc(Cl)cc(Cl)c1)C2=O (stereo unspecified)" cat=inactive
molecule=OCc1ccco1 cat=inactive
molecule=Nc1cc(Cl)cc(Cl)c1 cat=inactive
molecule=Cl/C=C/Cl cat=inactive
molecule=CN(C)NC(=O)CCC(=O)O cat=inactive
molecule=CN(C)C(=O)Cl cat=inactive

Identify the outcome logged in this assay for the molecule shown: C=C(C)C(=O)OCC(CC)CCCC (stereo unspecified)
inactive

Look up the recorded call for `OC[C@@H](O)[C@H]1O[C@@H]2O[C@H](C(Cl)(Cl)Cl)O[C@@H]2[C@H]1O` in this test.
inactive

Recorded call for `CN(C)C(=O)C(c1ccccc1)c1ccccc1` ?
inactive

// outcome(item) with item = O=C(O)C1C(C(=O)O)C2(Cl)C(Cl)=C(Cl)C1(Cl)C2(Cl)Cl (stereo unspecified)
inactive

Name the outcome recorded for OCC(O)CCl (stereo unspecified) in the assay.
inactive

Tell me the recorded outcome of this test for `Nc1ccc(N)cc1` .
active

Hello, I am checking results. What call was entered for CCOC(=O)CC(SP(=O)(OC)OC)C(=O)OCC (stereo unspecified) ?
inactive

How was `CNC(=O)O/N=C/C(C)(C)S(C)(=O)=O` classified in this test?
inactive

Please indicate how the test categorized `Cc1cc(O)ccc1Cl` .
inactive

# fetch the recorded call for `COS(=O)(=O)OC` here
inactive

Which outcome was assigned to CNCC(O)c1ccc(O)cc1 (stereo unspecified) in this test?
active

Tell me the recorded outcome of this test for `Nc1ccc([As](=O)(O)O)cc1` .
inactive

Short answer needed: outcome of this test for `C[C@]12CC[C@H](O)CC1=CC[C@@H]1[C@@H]2CC[C@]2(C)C(=O)CC[C@@H]12` ?
inactive

Write down the call the test reported for this molecule. Item: `Clc1cnc(Oc2ccc(Oc3ncc(Cl)cc3Cl)cc2)c(Cl)c1`
inactive

For `C=CC#N` , which call appears in the assay record?
inactive

Answer briefly: the call reported for `CCOP(=S)(OCC)Oc1cc(C)nc(C(C)C)n1` in this assay.
inactive

Tell me the assay call for `O=[N+]([O-])c1ccc(Cl)c(Cl)c1` please.
inactive

Field: outcome | Entry: `CC(C)CCCCCCOC(=O)c1ccccc1C(=O)OCCCCCCC(C)C`
inactive

Status in this test for `CCNc1nc(Cl)nc(NC(C)C)n1` ?
inactive

Tell me the recorded outcome of this test for `Nc1nc(N)nc(NC2CC2)n1` .
inactive

Called result for `CSc1nnc(C(C)(C)C)c(=O)n1N`
active

Which outcome was assigned to `CC[N+](=O)[O-]` in this test?
inactive

Each molecule tested received a call. Report the one for `C=CCN=C=S` .
inactive
